Value source: paper PMC7766225

Reported % Inhibition at 10 µM values for the following molecules.
target: Aurora-A kinase (Homo sapiens); construct: purchased Invitrogen (Carlsbad, CA, USA); experiment: FRET-based Z'-LYTE kinase enzyme inhibition assay; type: biochemical; settings: 10 µM, duplicates, Z'-LYTE
Numbers only here, please. The scale is %.

Solved entries (count: 2):
Which % Inhibition at 10 µM is reported for this molecule? COc1ccc(C=NCCN=Cc2ccc(OC)cc2)cc1 [Hit 129]
3

Which % Inhibition at 10 µM is reported for this molecule? COc1ccc(C(Cc2ccc(Cl)cc2)NCCO)cc1 (stereo not shown) [Hit 92]
3

Others:
Which % Inhibition at 10 µM is reported for this molecule? COc1ccc(NC(=O)CC(=O)Nc2ccc(OC)cc2)cc1 [Hit 101]
6

Which % Inhibition at 10 µM is reported for this molecule? CN(C)CC(O)c1ccc(C=Cc2ccc(Cl)cc2)cc1 (stereo not shown) [Hit 143]
-72

Which % Inhibition at 10 µM is reported for this molecule? O=C(NCCc1ccccc1)c1ccc([N+](=O)[O-])cc1 [Hit 87]
-4

Which % Inhibition at 10 µM is reported for this molecule? O=C(NC(Cc1ccc2c(c1)OCO2)C(=O)O)c1ccccc1 (stereo not shown) [Hit 139]
6

###

tested on: PANC1 cells; assay: MTT cytotoxicity/anti-proliferation assay, PANC1; format: cell-based, human; conditions: Homo sapiens, PANC-1, 72 h, Panc1, 72 h
Reported IC50 values for the following compounds.

Solved entries (count: 5):
Which IC50 is reported for this compound? CCCC1N(Cc2ccc(OC)cc2)CCN1Cc1ccc(OC)cc1
> 50 µM

Which IC50 is reported for this compound? O=C(O)c1ccc(Nc2ccnc3cc(Cl)ccc23)cc1O
> 50 µM

Which IC50 is reported for this compound? Cc1cc(Nc2cc(N3CCN(C)CC3)nc(Sc3ccc(NC(=O)C4CC4)cc3)n2)[nH]n1 [Tozasertib/(VX-680), Tozasertib, reference compound]
~7.6 µM

Which IC50 is reported for this compound? COc1cc(/C=N/c2ccc3ccccc3c2)ccc1O
> 50 µM

Which IC50 is reported for this compound? Cc1cc(O)c(/N=N/c2ccc(C(=O)O)cc2)cc1C
> 50 µM

Continue with the compound presented below.
Which IC50 is reported for this compound? COc1ccc(C(=O)C2=NON3O[C@@]23C(=O)c2ccc(OC)cc2)cc1 (stereo partly drawn)
3.5 µM

###

tested on: T-47D cells; assay: MTT cytotoxicity/anti-proliferation assay, T-47D; assay type: cell-based; details: Homo sapiens, T47D, 50 µM, 72 h
Reported inhibition at 50 µM values for the following molecules.
Numbers only here, please. The scale is %.

Which inhibition at 50 µM is reported for this molecule? Cc1cc(Nc2cc(N3CCN(C)CC3)nc(Sc3ccc(NC(=O)C4CC4)cc3)n2)[nH]n1 [Tozasertib/(VX-680), Tozasertib, reference compound]
80.9

Which inhibition at 50 µM is reported for this molecule? CCCC1N(Cc2ccc(OC)cc2)CCN1Cc1ccc(OC)cc1 [Hit 130]
31.3

Which inhibition at 50 µM is reported for this molecule? O=C(O)c1ccc(Nc2ccnc3cc(Cl)ccc23)cc1O [Hit 141]
25

Which inhibition at 50 µM is reported for this molecule? Cc1cc(O)c(/N=N/c2ccc(C(=O)O)cc2)cc1C [Hit 88]
34.9

Which inhibition at 50 µM is reported for this molecule? COc1ccc(C(=O)C2=NON3O[C@@]23C(=O)c2ccc(OC)cc2)cc1 (stereo partly drawn) [Hit 85]
86

Continue with the molecule presented below.
Which inhibition at 50 µM is reported for this molecule? COc1cc(/C=N/c2ccc3ccccc3c2)ccc1O [Hit 112]
48.1

###

tested on: MDA-MB-231 cells; assay: MTT cytotoxicity/anti-proliferation assay, MDA-MB-231; assay type: cell-based, human; details: MDA-MB-231, 72 h
readout type: IC50 (µM)
Numbers only here, please. The scale is µM.

Which IC50 is reported for this compound? Cc1cc(Nc2cc(N3CCN(C)CC3)nc(Sc3ccc(NC(=O)C4CC4)cc3)n2)[nH]n1 [Tozasertib/(VX-680), Tozasertib, reference compound]
7.7

###

Reported IC50 values for the following molecules.
test system: MDA-MB-231 cells; test: MTT cytotoxicity/anti-proliferation assay, MDA-MB-231; format: cell-based, human; conditions: Homo sapiens, MDA-MB-231, 72 h

Solved entries (count: 5):
Which IC50 is reported for this molecule? Cc1cc(Nc2cc(N3CCN(C)CC3)nc(Sc3ccc(NC(=O)C4CC4)cc3)n2)[nH]n1 [Tozasertib/(VX-680), Tozasertib, reference compound]
~7.6 µM

Which IC50 is reported for this molecule? COc1cc(/C=N/c2ccc3ccccc3c2)ccc1O [Hit 112]
17.9 µM

Which IC50 is reported for this molecule? CCCC1N(Cc2ccc(OC)cc2)CCN1Cc1ccc(OC)cc1 [Hit 130]
> 50 µM

Which IC50 is reported for this molecule? O=C(O)c1ccc(Nc2ccnc3cc(Cl)ccc23)cc1O [Hit 141]
> 50 µM

Which IC50 is reported for this molecule? COc1ccc(C(=O)C2=NON3O[C@@]23C(=O)c2ccc(OC)cc2)cc1 (stereo partly drawn) [Hit 85]
11 µM

Continue with the molecule presented below.
Which IC50 is reported for this molecule? Cc1cc(O)c(/N=N/c2ccc(C(=O)O)cc2)cc1C [Hit 88]
> 50 µM

###

system: T-47D cells; assay: MTT cytotoxicity/anti-proliferation assay, T-47D; type: cell-based; settings: Homo sapiens, T47D, 72 h
readout type: IC50

Which IC50 is reported for this compound? Cc1cc(Nc2cc(N3CCN(C)CC3)nc(Sc3ccc(NC(=O)C4CC4)cc3)n2)[nH]n1 [Tozasertib/(VX-680), Tozasertib, reference compound]
17.9 µM

Which IC50 is reported for this compound? Cc1cc(O)c(/N=N/c2ccc(C(=O)O)cc2)cc1C [Hit 88]
> 50 µM

Which IC50 is reported for this compound? O=C(O)c1ccc(Nc2ccnc3cc(Cl)ccc23)cc1O [Hit 141]
> 50 µM

Others:
Which IC50 is reported for this compound? COc1cc(/C=N/c2ccc3ccccc3c2)ccc1O [Hit 112]
> 50 µM

Which IC50 is reported for this compound? CCCC1N(Cc2ccc(OC)cc2)CCN1Cc1ccc(OC)cc1 [Hit 130]
> 50 µM

Which IC50 is reported for this compound? COc1ccc(C(=O)C2=NON3O[C@@]23C(=O)c2ccc(OC)cc2)cc1 (stereo partly drawn) [Hit 85]
8.8 µM

###

Reported % Inhibition at 10 µM values for the following molecules.
Target: Aurora-A kinase (Homo sapiens)
Construct: purchased Invitrogen (Carlsbad, CA, USA)
Sequence (O14965 1-403): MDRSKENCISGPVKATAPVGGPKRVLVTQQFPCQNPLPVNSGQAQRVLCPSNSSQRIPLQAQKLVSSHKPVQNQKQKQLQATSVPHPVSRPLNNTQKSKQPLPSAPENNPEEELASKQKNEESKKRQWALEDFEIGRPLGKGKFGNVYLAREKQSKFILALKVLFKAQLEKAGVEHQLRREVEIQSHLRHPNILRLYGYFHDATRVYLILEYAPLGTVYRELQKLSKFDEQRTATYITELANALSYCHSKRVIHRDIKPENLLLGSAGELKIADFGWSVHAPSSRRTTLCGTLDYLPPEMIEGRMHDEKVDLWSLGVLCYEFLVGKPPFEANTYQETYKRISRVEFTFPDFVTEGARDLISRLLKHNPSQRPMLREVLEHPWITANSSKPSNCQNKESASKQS
Assay: FRET-based Z'-LYTE kinase enzyme inhibition assay
Type: biochemical
Conditions: 10 µM, duplicates, Z'-LYTE

Which % Inhibition at 10 µM is reported for this molecule? O=C(OCC=Cc1ccccc1)c1ccc([N+](=O)[O-])cc1
3%

Which % Inhibition at 10 µM is reported for this molecule? Cc1ccc[n+](CC(=O)c2ccc([N+](=O)[O-])cc2)c1
6%

Which % Inhibition at 10 µM is reported for this molecule? CC(=O)Nc1ccc(S(=O)(=O)NN=Cc2ccc(C)cc2)cc1
6%

Others:
Which % Inhibition at 10 µM is reported for this molecule? COc1ccc(C(N)C(O)c2ccc(OC)cc2)cc1 (stereo not shown)
0%

###

Reported % Inhibition at 10 µM values for the following compounds.
target: Aurora-A kinase (Homo sapiens); construct: purchased Invitrogen (Carlsbad, CA, USA); assay: FRET-based Z'-LYTE kinase enzyme inhibition assay; assay type: biochemical; conditions: 10 µM, duplicates, Z'-LYTE
Numbers only here, please. The scale is %.

Which % Inhibition at 10 µM is reported for this compound? COc1ccc(CC(=O)c2ccc(OC)c(OC)c2)cc1OC [Hit 117]
7

Others:
Which % Inhibition at 10 µM is reported for this compound? CNC(Cc1ccc(OC)cc1)c1ccc(OC)cc1 (centres unmarked) [Hit 154]
-2

Which % Inhibition at 10 µM is reported for this compound? COc1ccc(C(=O)[C@H](CN(C)C)c2ccc(OC)cc2)cc1 [Hit 105]
1

Which % Inhibition at 10 µM is reported for this compound? O=[N+]([O-])c1ccc(S(=O)(=O)NN=Cc2ccco2)cc1 [Hit 136]
5
